Target: LmGMPR (Leishmania major)
Sequence (Q4QEB3 1-492): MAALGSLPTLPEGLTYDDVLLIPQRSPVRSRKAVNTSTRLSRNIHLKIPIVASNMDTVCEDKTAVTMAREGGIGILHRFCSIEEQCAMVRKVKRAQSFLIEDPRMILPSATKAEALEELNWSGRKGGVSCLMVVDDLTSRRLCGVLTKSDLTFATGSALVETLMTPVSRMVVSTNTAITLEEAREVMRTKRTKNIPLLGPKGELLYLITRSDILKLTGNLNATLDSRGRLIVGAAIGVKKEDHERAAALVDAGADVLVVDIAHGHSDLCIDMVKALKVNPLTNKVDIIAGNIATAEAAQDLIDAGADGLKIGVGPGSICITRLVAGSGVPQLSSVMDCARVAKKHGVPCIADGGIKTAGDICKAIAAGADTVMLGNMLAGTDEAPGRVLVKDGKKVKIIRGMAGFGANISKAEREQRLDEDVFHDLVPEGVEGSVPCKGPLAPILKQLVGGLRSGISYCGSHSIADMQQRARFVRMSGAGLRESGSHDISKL
Assay: Fluorescence titration of nucleotide binding to full length LmGMPR
Parameters: species or system L. major
Conditions: read-out: Kd1; 26 μM LmGMPR, no NADPH, fluorescence at 335 nm
READOUT_LABEL: pKd
Answer as the number alone; pKd is minus log10 of concentration in mol/L.

Which pKd value is on record for `Nc1ncnc2c1ncn2[C@@H]1O[C@H](COP(=O)(O)OP(=O)(O)OP(=O)(O)O)[C@@H](O)[C@H]1O` ?
4.06

Now for another entry.
Which pKd value is on record for `Nc1nc2c(ncn2[C@@H]2O[C@H](COP(=O)(O)OP(=O)(O)OP(=O)(O)O)[C@@H](O)[C@H]2O)c(=O)[nH]1` ?
4.80

====

Target: LmGMPR (Leishmania major, UniProt Q4QEB3)
Experiment: Fluorescence titration of nucleotide binding to full length LmGMPR
Parameters: species or system L. major
Conditions: absence of GMP; shift of NADPH emission λmax, excitation 340 nm, equation 3
READOUT_LABEL: Kd (µM)
Numbers only; they are read as µM.

Which Kd value is on record for `NC(=O)C1=CN([C@@H]2O[C@H](COP(=O)(O)OP(=O)(O)OC[C@H]3O[C@@H](n4cnc5c(N)ncnc54)[C@H](OP(=O)(O)O)[C@@H]3O)[C@@H](O)[C@H]2O)C=CC1` ?
27

====

Target: LdIMPDH (Leishmania donovani, UniProt P21620)
Sequence (P21620 whole entry): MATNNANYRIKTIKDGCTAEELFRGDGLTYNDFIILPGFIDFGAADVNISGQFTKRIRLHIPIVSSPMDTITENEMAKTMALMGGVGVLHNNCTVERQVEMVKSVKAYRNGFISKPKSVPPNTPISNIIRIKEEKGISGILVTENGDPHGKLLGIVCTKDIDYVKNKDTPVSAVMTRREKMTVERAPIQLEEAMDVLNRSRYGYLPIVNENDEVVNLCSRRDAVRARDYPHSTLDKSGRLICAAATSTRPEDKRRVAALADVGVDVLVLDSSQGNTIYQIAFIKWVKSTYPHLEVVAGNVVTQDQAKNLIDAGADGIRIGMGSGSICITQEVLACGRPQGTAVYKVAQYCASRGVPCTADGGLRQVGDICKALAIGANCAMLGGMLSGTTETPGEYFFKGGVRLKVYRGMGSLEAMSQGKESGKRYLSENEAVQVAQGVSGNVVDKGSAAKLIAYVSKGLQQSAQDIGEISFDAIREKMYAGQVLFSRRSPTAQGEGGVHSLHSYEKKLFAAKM
Assay: biochemical
Assay type: binding
READOUT_LABEL: Kd (µM)
Numbers only; they are read as µM.

Which Kd value is on record for Nc1nc2c(ncn2[C@@H]2O[C@H](COP(=O)(O)O)[C@@H](O)[C@H]2O)c(=O)[nH]1 [GMP, guanosine 5′-monophosphate] ?
66

====

Target: LmGMPR (Leishmania major, UniProt Q4QEB3)
READOUT_LABEL: Ki

Which Ki value is on record for `COc1c(C)c2c(c(O)c1C/C=C(\C)CCC(=O)O)C(=O)OC2` ?
~20 µM

====

Target: LmGMPR CBS domain (His6-gmpr92-222) (Leishmania major)
Test: Intrinsic fluorescence binding to LmGMPR CBS domain
Set-up: species or system L. major
Conditions: single phase binding isotherm, 35 μM His6-gmpr92-222
READOUT_LABEL: pKd
Answer as the number alone; pKd is minus log10 of concentration in mol/L.

Which pKd value is on record for `Nc1nc2c(ncn2[C@@H]2O[C@H](COP(=O)(O)OP(=O)(O)OP(=O)(O)O)[C@@H](O)[C@H]2O)c(=O)[nH]1` ?
3.73
